# System: SK-MEL-2 melanoma
# TEST SUMMARY: NCI tumour cell line growth inhibition, 48 h
VALUE TYPE: TGI

Value of measured TGI for the entry CC(=O)NC(C)c1ccc(N=NN2CCCC2)cc1 (centres undefined) : > 100 µM

Form: compound = NC(=O)CCC(NC(=O)c1cccc2c(=O)c3ccccc3[nH]c12)C(=O)O (centres undefined) ; TGI = > 100 µM

Further cases:
So, O=C(Cc1ccccc1)N=Nc1c(O)[nH]c2ccccc12 ? Its TGI was > 100 µM

Kindly note the recorded TGI for CSC1(SC)N2Cc3ccccc3N=C2C1(c1ccccc1)c1ccccc1 , which is > 58.1 µM

// recorded TGI for NC(=O)c1ncn2c(=O)n(CCl)nnc12 : > 100 µM

// TGI value for CN(C)C(=S)/N=c1\ss/c(=N\C(=S)N(C)C)n1-c1ccc(Cl)cc1 : > 100 µM

Just so you know, measured TGI for Nc1nc(NC2C=C(CO)C(O)C2O)c([N+](=O)[O-])c(=O)[nH]1 (centres undefined) came out at > 100 µM

The compound listed as O=c1cc(-c2ccccc2)[nH]c2c(Cl)cccc12 has a reported TGI of > 100 µM

What the record says about O=C(Cn1c(=O)oc2ccc(C(=O)c3ccccc3Cl)cc21)c1ccc([N+](=O)[O-])cc1 : TGI is 41.6 µM

====

# Tested on: DU-145 prostate
# TEST SUMMARY: NCI tumour cell line growth inhibition, 48 h; in the data active = GI50 below about 0.43 µM; inactive = the rest
Field 'call' accepts yes (active), no (inactive)

Short answer needed: outcome of this test for O=C(/C=C/c1cccc([N+](=O)[O-])c1)c1ccc(O)c(CN2CCN(c3cc4c(cc3F)c(=O)c(C(=O)O)cn4C3CC3)CC2)c1 ?
no

What outcome does the record of this test show for Cc1cc([N+](=O)[O-])ccc1NS(=O)(=O)c1cc(Cl)ccc1Cl ?
no

For C[n+]1c2ccccc2c(Nc2ccc(NS(=O)(=O)CCCCN=C(N)N)cc2)c2ccc(N)cc21 , what call appears in the results of this test?
yes

What did this assay record as the result for O=C(NCCN1CCC(O)CC1)c1cc2c(o1)C(=O)c1ccccc1C2=O ?
yes

For this compound, state the assay outcome: Cn1cc(-c2nc(-c3c[nH]c4ccncc34)cs2)c2cc(F)ccc21
no

Record request — test call for COc1cc(F)cc([C@@H](CO)NC(=O)[C@@H](C)N2Cc3ccc(-c4nc(NC5CCOCC5)ncc4Cl)cc3C2=O)c1
no

How did this test come out for COc1ccc2c(c1)c1nc3cc(C)c(C)cc3nc1n2CCN(C)C ?
no

Recorded test outcome, item CN1CCN(C(=O)c2c(NC(=O)NS(=O)(=O)c3ccccc3)sc3c2CCCCC3)CC1
no

Recorded test call requested for COc1ccc(C2=Nc3c/c(=C\c4c(O)[nH]c5ccc(Cl)cc45)ccc3=N2)cc1
no

Status in this test for Cc1cccc(Cl)c1NC(=O)c1cnc(Nc2cc(N3CCOCC3)cc(N3CCOCC3)c2)s1 ?
yes

***
Outcome logged for OC(C1CO1)C(O)C1CO1 (centres undefined) in this assay:
no

Assay result, entry Cn1c(/C=C(\C#N)c2cccc(C(F)(F)F)c2)nc2c(N3CCOCC3)nc(Cl)nc21 — outcome?
no

For COc1cc2c(cc1OC)-c1ccc3cc4c(cc3c1N(CCN(C)C)C2)OCO4 , what call appears in the results of this test?
yes

Could you please tell me the result logged for CN[C@@H]1C[C@H]2O[C@@](C)([C@@H]1OC)n1c3ccccc3c3c4c(c5c6ccccc6n2c5c31)C(=O)N[C@H]4O in this assay?
yes
